Tested on: HT-29
Assay Protocol: NCI tumour cell line growth inhibition, 48 h
Calls of active or inactive are those of the source. Rule as the data show it: active = GI50 up to about 1.1 µM and inactive = higher.
Property Measured: GI50

[[record]]
compound = "O=C(c1ccc([N+](=O)[O-])cc1)N1CCCC1"
target_system = "HT-29"
val = "> 100 µM (inactive)"

[[record]]
compound = "C=C(C)C(=O)O[C@H]1CC2=C[C@@H](C[C@@]3(C)O[C@@H]3[C@H]3OC(=O)C(=C)[C@@H]31)OC2=O [ELEPHANTOPIN]"
target_system = "HT-29"
val = "2.48 µM (inactive)"

[[record]]
compound = "N#Cc1nc(C#N)c(N)[nH]1"
target_system = "HT-29"
val = "> 100 µM (inactive)"

[[record]]
compound = "Cc1ccc2ccccc2c1CSc1nc(N)nc2c1ncn2CC(C)C"
target_system = "HT-29"
val = "9.14 µM (inactive)"

[[record]]
compound = "Cc1n[nH]c(=O)n1N1C(=O)c2ccccc2C1=O"
target_system = "HT-29"
val = "> 100 µM (inactive)"


Indicate its recorded GI50; the compound in question is "CC1=C(O)C(=O)C2=C(C1=O)[C@@H]([C@@H](C)C/C=C/C(C)(C)O)CC[C@@H]2C"
69.3 µM (inactive)

Quote GI50 reported for CC1=CC(C)C(C)N(CCNC(=O)Nc2ccccc2)c2ccccc21 (configuration not stated) please.
12 µM (inactive)

Please look at this compound and report its GI50: CCCCCCCCCCCCCCCCCCNc1nc(=O)n(C2CC(OP(=O)(O)OCC3OC(n4cc(F)c(=O)[nH]c4=O)CC3O)C(CO)O2)cc1F (configuration not stated)
16.6 µM (inactive)

Complete the entry with GI50 for "O=C1NC2(CCN(CCCC3(c4ccc(F)cc4)OCCO3)CC2)Oc2ccccc21"
42.4 µM (inactive)

Give recorded GI50. "CSc1c(C#N)c(N)nc2c(/N=N\c3ccc(Br)cc3)c(N)nn12"
9.53 µM (inactive)

Please report the measured GI50 for "O=C1C(=O)c2ccccc2C=C1[N+](=O)[O-]"
> 100 µM (inactive)

Recall and state the measured GI50 for "O=C1Nc2ccccc2/C1=N/Nc1c(F)c(F)c(F)c(F)c1F" .
42.8 µM (inactive)

Name the recorded GI50 of the compound listed here: "CCOC(=O)c1c(NC(=O)OC)c(C#N)c2n1CCCCC2"
> 100 µM (inactive)

Please give measured GI50 of the following entry: "CCNC1=C(NC(=O)CC)C(=O)c2ccccc2C1=O"
34.8 µM (inactive)

Entry "CC(=O)OC(=C(C#N)C#N)c1nccnc1C(=O)O" needs its GI50 filled in; supply it.
> 100 µM (inactive)

Assign GI50 to the following record: "O=C(O)CCC[C@]1(O)O[C@@]2(CCCC2=O)[C@]2(O)CCC[C@@]21O"
> 100 µM (inactive)

For the compound C=C1C(=O)OC2CC(C)C3(O)CCC(=O)C3(C)CC12 (configuration not stated) , give its measured GI50 value.
20.2 µM (inactive)

Return value of GI50 for input COc1ccccc1C1SCC(=O)N1c1ccc(-c2ccc(-n3c(-c4ccccc4)nc4ccccc4c3=O)cc2)cc1 (configuration not stated) , no commentary.
> 100 µM (inactive)

---

Recorded GI50 values for a group of molecules are listed next.
System: RXF 393
Assay Protocol: NCI tumour cell line growth inhibition, 48 h
The source made the active and inactive calls. Rule as the data show it: active = GI50 up to about 1.1 µM and inactive = higher.

[[record]]
molecule = "CCc1n[nH]c(=O)n1-c1ccc2ccccc2c1"
property_measured = "GI50"
val = "> 100 µM (inactive)"

[[record]]
molecule = "COc1ccc(OC)c(NC(=O)C(=O)C(C(C)=O)c2nc3ccc(Cl)cc3nc2O)c1 (stereo not given)"
property_measured = "GI50"
val = "> 50 µM (inactive)"

[[record]]
molecule = "CC1=CCC(C)=Nc2nc3ccccc3n21"
property_measured = "GI50"
val = "> 100 µM (inactive)"

[[record]]
molecule = "C=C(C)C(=O)O[C@H]1CC2=C[C@@H](C[C@@]3(C)O[C@@H]3[C@H]3OC(=O)C(=C)[C@@H]31)OC2=O"
property_measured = "GI50"
val = "0.369 µM (active)"

[[record]]
molecule = "O=C(c1cc2c(c3ccccc13)NCCN=C2C(F)(F)F)C(F)(F)F"
property_measured = "GI50"
val = "23.3 µM (inactive)"


Recall and state the measured GI50 for "CC(=O)OC/C=C(/C=C/CNC1CCCCC1)OC(C)=O" .
17.9 µM (inactive)

Annotate the molecule "O=C1Nc2ccccc2/C1=N/Nc1c(F)c(F)c(F)c(F)c1F" with its measured GI50.
53.8 µM (inactive)

For COc1nc2c(nc(N)n2C2OCC(O)C(O)C2O)c(=O)n1C (stereo not given) , write its GI50.
> 100 µM (inactive)

Please indicate GI50 recorded for CCOC(=O)C(C)c1nc2cc(C(F)(F)F)ccc2[nH]c1=O (stereo not given)
> 100 µM (inactive)

Indicate the recorded GI50 value for this molecule: C=C(CCC(C)C1CCC2C3=C(C(=O)CC21C)C1(C)CCC(=O)[C@@H](C)C1CC3=O)C(C)C(=O)O (stereo not given in full)
18 µM (inactive)

All figures here come from ChEMBL document CHEMBL1201862.
